- target: rat PrRP receptor (Rattus norvegicus, UniProt Q64121)
- Construct: host or cells: RC-4B/C rat pituitary cell line
- Sequence (Q64121 1-370): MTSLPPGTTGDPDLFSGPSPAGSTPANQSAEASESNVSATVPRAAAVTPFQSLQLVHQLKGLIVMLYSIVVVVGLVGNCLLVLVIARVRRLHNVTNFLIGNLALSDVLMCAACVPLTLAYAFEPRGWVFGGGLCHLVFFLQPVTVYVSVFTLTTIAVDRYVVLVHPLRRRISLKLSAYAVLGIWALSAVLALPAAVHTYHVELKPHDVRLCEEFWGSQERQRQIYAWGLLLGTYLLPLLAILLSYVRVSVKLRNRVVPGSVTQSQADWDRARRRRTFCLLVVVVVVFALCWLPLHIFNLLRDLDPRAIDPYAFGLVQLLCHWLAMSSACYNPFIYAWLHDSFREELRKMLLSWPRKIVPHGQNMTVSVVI
- assayMethodText: Competitive binding in RC-4B/C rat pituitary cells (125I-rat PrRP31)
- conditionSet: affinity relative to PrRP31
Ends that are not written are not given here.
propertyMeasured: % of PrRP31, RC-4B/C rat pituitary cells (%)

Worked set:
SRAHQHSMETRTPDINPAWYTGRGIRPVGRF-NH2 [Rat PrRP31, reference compound] : 100
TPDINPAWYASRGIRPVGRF-NH2 [Human PrRP20, reference compound] : 277
QHSMETRTPDINPAWYTGRGIRPVGRF-NH2 [Analog 37] : 189

P = TPDINPAWYASRPFRPVGRF-NH2 [Analog 33]
Q = TPDINPAWYTGRGIRPVGRF-NH2 [Rat PrRP20, reference compound]
R = TPDINPAWYTGRGARPFGRF-NH2 [Analog 31]
hey, can you rank those substances up there by % of PrRP31, RC-4B/C rat pituitary cells? biggest number first please Write the labels, ordered according to the request. P, Q, R
(P: 230%, Q: 143%, R: 0.8%)
